test-name: Pharmacokinetics in rats
Type: in vivo, Sprague Dawley rats
protocol-conditions: male, Sprague Dawley, whole blood; rat, PO, 10 mg kg^–1
measurement-label: Cmax (ng/mL)
Give the value, in units of ng/mL, as a plain number.

Suppose we examine the compound `CC(C)(O)CC(=O)c1sc(Nc2ccc(F)c(F)c2)nc1N` ; what Cmax value has been reported?
1400

----------
test-name: Mammalian cell counter screen (MRC-5)
Type: cell-based, human
protocol-conditions: human, MRC-5 fibroblasts; mean values; number of replicates in parentheses
measurement-label: pEC50
Formally, pEC50 is defined as -log10 of the concentration c, with c in mol/L.

| compound | pEC50 |
| --- | --- |
| Nc1nc(NC2CCCCC2)sc1C(=O)c1ccncc1 [Compound 25] | 4.72 |
| CC(C)(O)CC(=O)c1sc(Nc2ccc(F)c(F)c2)nc1N [Compound 38] | 4.34 |
| O=C(c1cnc(NC2CCCCC2)s1)C1CCCCC1 [Compound 32] | 4.31 |
| Nc1nc(Nc2ccc(F)c(F)c2)sc1C(=O)COC(C(F)(F)F)C(F)(F)F [Compound 49] | 4.89 |

Attention now shifts to the item below.
Suppose we examine the compound Nc1nc(Nc2ccc(F)c(F)c2)sc1C(=O)CN1CCCC1C(F)(F)F (stereo not drawn) [Compound 60] ; what pEC50 value has been reported?
4.49
